The following variants are listed with their measured protein stability index values.
B1: TEKT4 (parent)
chain: SEVEELNMSLTALREKLLEAEQSL

Variants of: B1
Assay: protein stability index of a GFP-peptide fusion (GPS, HEK-293T) (PSI 1-6); higher = more stable;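 note: lentivirally expressed fusions sorted by FACS into six bins by GFP to DsRed ratio, PSI derived from sequencing read proportions per bin multiplied by bin number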
Conditions: c terminus: a fixed tail appended
Form field (numeric): enter value without unit.

Looking up SEVEELNMSLTAKREKLLEAEQSL [L13K] , I found its protein stability index recorded as 4.76

Entry SEVEELNMSLTALREKLLEAEQSV [L24V] , protein stability index reported as 2.25

Looking up SEVEELNMSLTALREKLLGAEQSL [E19G] , I found its protein stability index recorded as 3.95

Entry under test: SEVEEWNMSLTALREKLLEAEQSL [L6W] . Its protein stability index was 2.95

Lookup result for SEVEELNMSLTALREKDLEAEQSL [L17D] ; measured protein stability index: 5.26

According to the records, this variant SEVEELNASLTALREKLLEAEQSL [M8A] displays protein stability index of 2.9

Looking up SEVEELNMSLIALREKLLEAEQSL [T11I] , I see its protein stability index listed as 2.35

Recorded result, SEVEELNMSLTALREKLLEYEQSL [A20Y] , protein stability index: 3.88

# protein stability index (variant: SEVKELNMSLTALREKLLEAEQSL [E4K] ) is 2.24

Notebook: SEVESLNMSLTALREKLLEAEQSL [E5S] , protein stability index read as 3.06

// field: protein stability index; key: SEVEELNMSLTALREKLLEAERSL [Q22R] ; value = 2.64

Recorded protein stability index (variant SEVEELWMSLTALREKLLEAEQSL [N7W] ): 2.1

The variant SEVEELNMSLTALREKLLFAEQSL [E19F] showed protein stability index equal to 2.24

Lab book: protein stability index of HEVEELNMSLTALREKLLEAEQSL [S1H] noted as 3.19

The variant listed as SEVSELNMSLTALREKLLEAEQSL [E4S] shows protein stability index equal to 2.71

// SEVEELNMSLTALREKLLEAEQIL [S23I] : protein stability index value = 2.74

Noted for SEVEELPMSLTALREKLLEAEQSL [N7P] : its protein stability index reads 3.42

Item: SEVEELNMSLTALRQKLLEAEQSL [E15Q] | protein stability index: 2.52

Sample SEVEELNISLTALREKLLEAEQSL [M8I] ; protein stability index observed: 3.17

For SEVEELRMSLTALREKLLEAEQSL [N7R] the variant record lists protein stability index as 3.92

Field protein stability index (entry IEVEELNMSLTALREKLLEAEQSL [S1I] ) reads 2.37

Origin of values: the supplement of paper PMC10567573
